Attribution: paper PMC10946275

RECORDED ENDPOINT: melting point

For record O=C1C(=Nn2cc(-c3ccc4ccccc4c3)n(Cc3ccccc3)c2=S)c2cccc3cccc1c23 [5m] the listed melting point is 332 to 334 °C

Form field melting point, entry Cn1c(-c2ccc(Cl)cc2)cn(N=C2C(=O)c3cccc4cccc2c34)c1=S [5g] : 262 to 264 °C

O=C1C(=Nn2cc(-c3ccccc3)n(-c3ccccc3)c2=S)c2cccc3cccc1c23 [5b] has a reported melting point of 240 to 242 °C

# molecule C=CCn1c(-c2ccc(Cl)cc2)cn(N=C2C(=O)c3cccc4cccc2c34)c1=S [5k] ; its melting point = 262 to 264 °C

# molecule O=C1C(=Nn2cc(-c3ccc(Cl)cc3)n(Cc3ccccc3)c2=S)c2cccc3cccc1c23 [5i] ; its melting point = 260 to 262 °C
